System: Staphylococcus aureus
Conditions: Concentration 20 uM; ASSAY_TEST Inhibition of Bacterial Growth; detection method Absorption (OD600); MEDIA CAMHB; plate type 384well; NBS; CORNING #3640; time 18 hr
Description: Antibacterial activity against Staphylococcus aureus MRSA ATCC 43300 (CO-ADD:GP_020); MIC in CAMBH media, using NBS plates, by OD(600)
Measured potencies and affinities stand elsewhere.
Label MET when Inhibition is strictly below 10%; at or above that, label NOT MET.

# count of solved cases: 3
CC(C)(C)NCC(O)COc1cccc2c1CC(O)C(O)C2 (stereo unspecified) :: NOT MET
O=C(CCCN1CC=C(n2c(=O)[nH]c3ccccc32)CC1)c1ccc(F)cc1 :: NOT MET
CC1=C(/C=C/C(C)=C/C=C/C(C)=C\C(=O)O)C(C)(C)CCC1 :: MET

Is the reported Inhibition for CNCC[C@H](Oc1cccc2ccccc12)c1cccs1.Cl [DULOXETINE HYDROCHLORIDE] strictly below 10%?
MET

Next entry: CCN(CC)CCNC(=O)c1cc(Cl)c(N)cc1OC.Cl
MET

Next entry: CCN1CCC[C@H]1CNC(=O)c1c(O)c(Cl)cc(Cl)c1OC [RACLOPRIDE]
MET

Next entry: Nc1nc(Cl)nc2c1ncn2[C@@H]1O[C@H](CO)[C@@H](O)[C@H]1O
MET

Next entry: CC(C)(C(=O)O)c1ccc(C(O)CCCN2CCC(C(O)(c3ccccc3)c3ccccc3)CC2)cc1.Cl (stereo unspecified) [FEXOFENADINE HYDROCHLORIDE]
NOT MET

Next entry: CN1CCN(c2nc3cc(C(F)(F)F)ccc3n3cccc23)CC1.O=C(O)/C=C\C(=O)O.O=C(O)/C=C\C(=O)O
MET

Next entry: CC(=O)NCCCCCCNC(C)=O [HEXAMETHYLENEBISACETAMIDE]
MET

Next entry: CC1=Nc2ccc(Cl)cc2S(=O)(=O)N1 [DIAZOXIDE]
MET

Next entry: CC(C)NCC(O)COc1ccc(CC(N)=O)cc1 (stereo unspecified)
MET

Next entry: CC(C)[N+]1(C)C2CCC1CC(OC(=O)C(CO)c1ccccc1)C2.[Br-] (stereo unspecified)
MET

Next entry: Cc1nc2n(c(=O)c1CCN1CCC(c3noc4cc(F)ccc34)CC1)CCCC2
MET

Next entry: CC(COc1ccccc1Cc1ccccc1)N1CCCCC1.O=P(O)(O)O (stereo unspecified)
NOT MET

----------
System: Escherichia coli
Settings: Concentration 20 uM; ASSAY_TEST Inhibition of Bacterial Growth; detection method Absorption (OD600); MEDIA CAMHB; plate type 384well; NBS; CORNING #3640; time 18 hr
Description: Antibacterial activity against Escherichia coli ATCC 25922 (CO-ADD:GN_001); MIC in CAMBH media using NBS plates, by OD(600)
Potency and affinity values are given separately.
recorded metric: Inhibition (%)
Give a bare numeral; the unit % is implied.

Provide value of Inhibition for this record tested with Escherichia coli: C[C@@H]1CN(CCCn2c3ccccc3c3ccccc32)C[C@H](C)N1.Cl.O
5.61

Next entry: CC(=O)OCC(=O)NCCCOc1cccc(CN2CCCCC2)c1.Cl [ROXATIDINE ACETATE HYDROCHLORIDE]
5.49

----------
System: Escherichia coli
Conditions: Concentration 20 uM; ASSAY_TEST Inhibition of Bacterial Growth; detection method Absorption (OD600); MEDIA CAMHB; plate type 384well; NBS; CORNING #3640; time 18 hr
Entries with a potency or affinity are not part of this list.
recorded metric: Inhibition (%)
Give a bare numeral; the unit % is implied.

For orientation, consider the following solved cases.
CSc1nc2cc(Cl)c(Oc3cccc(Cl)c3Cl)cc2[nH]1 :: -5.3
N=c1cc(N2CCCCC2)nc(N)n1O :: -3.43
CN(C)CCC[C@@]1(c2ccc(F)cc2)OCc2cc(C#N)ccc21.O=C(O)C(=O)O [ESCITALOPRAM OXALATE] :: 3.57
CC(=O)OCC(=O)C12OC3(CCCC3)OC1CC1C3CCC4=CC(=O)C=CC4(C)C3(F)C(O)CC12C (stereo not drawn) :: 7.38
CS(=O)(=O)O.Cc1c(O)cccc1C(=O)N[C@@H](CSc1ccccc1)[C@H](O)CN1C[C@H]2CCCC[C@H]2C[C@H]1C(=O)NC(C)(C)C [NELFINAVIR MESYLATE] :: 1.35
NS(=O)(=O)Cc1noc2ccccc12 [ZONISAMIDE] :: 0.42

Give the measured Inhibition of Cl.c1ccc2c(c1)CCCC2C1=NCCN1 (stereo not drawn) [TETRAHYDROZOLINE HYDROCHLORIDE] .
7.52

Next entry: CCC(=C(c1ccccc1)c1ccc(OCCN(C)C)cc1)c1ccccc1
6.04

Next entry: Cl.O=C1[C@H]2CCCC[C@H]2C(=O)N1CCCCN1CCN(c2nsc3ccccc23)CC1
0.37

Next entry: CC1CC2C3CCC4=CC(=O)C=CC4(C)[C@@]3(Cl)C(O)CC2(C)C1(O)C(=O)CO (stereo partly drawn)
5.77

Next entry: CNCCCCOc1ccccc1Cc1ccccc1.Cl
6.1

Next entry: NNCCc1ccccc1.O=S(=O)(O)O [PHENELZINE SULFATE]
5.31

FYI, the data here is from ChEMBL document CHEMBL4513141.
